# studyTarget: NACHT, LRR and PYD domains-containing protein 3 (Homo sapiens)
# assayProcedure: Inhibition of recombinant human NLRP3 ATPase assessed as hydrolysis of ATP at 100 uM preincubated for 15 mins followed by addition of ATP measured after 40 mins by ADP-Glo assay
endpointLabel: inhibition

Quickly give me recorded inhibition for CC(Cc1ccccc1Cl)C(=O)O (centres undefined) 15%

Quickly give me recorded inhibition for CCOC(=O)C(C)Cc1ccccc1Cl (centres undefined) 12%

Quickly give me recorded inhibition for C=C(Cc1ccccc1Cl)C(=O)O 44%

The origin of these recorded values is ChEMBL document CHEMBL4014309.
